Data origin, for the record: ChEMBL document CHEMBL3351992

Assayed Target: Human immunodeficiency virus type 1 reverse transcriptase (Human immunodeficiency virus 1, UniProt Q72547, K65R)
Measurement Protocol: Inhibition of wild type HIV1 reverse transcriptase K65R mutant assessed as inhibition of DNA primer extension using [8-3H(N)]-dATP by scintillation proximity assay
Measure Name: IC50 (µM)
Numbers only, in µM.

Take a look at these entries with their results.
Task: Item COc1cccc(-c2cc3c(NCC(P(=O)(O)O)P(=O)(O)O)ncnc3nc2SC)c1 has what recorded IC50?
Output: 3.3

Task: Consider the molecule CSc1nc2ncnc(NC(P(=O)(O)O)P(=O)(O)O)c2cc1-c1ccc(OC(C)C)cc1 and give its measured IC50.
Output: 1.8

Below: the item to evaluate.
Task: What measured IC50 goes with CSc1nc2ncnc(NCC(P(=O)(O)O)P(=O)(O)O)c2cc1-c1ccccc1 ?
Output: 5.2

###

Assayed Target: Human immunodeficiency virus type 1 reverse transcriptase (Human immunodeficiency virus 1, UniProt Q72547)
Kindly state pIC50 for each of the entries shown.
Answers are plain numbers, as −log10 of the molar value.

Task: I would be grateful if you could share the reported pIC50 for COc1cccc(-c2cc3c(NCC(P(=O)(O)O)P(=O)(O)O)ncnc3nc2SC)c1 .
Output: 5.62

Task: Item under review: O=P(O)(O)C(Nc1ncnc2nc(-c3cccs3)ccc12)P(=O)(O)O . Reported pIC50?
Output: 4.98

Now for another entry.
Task: What value of pIC50 has been reported for the following compound? O=C(O)C(=NNc1ccc(Cl)cc1)C(=O)O
Output: 5.82

###

Assayed Target: Human immunodeficiency virus type 1 reverse transcriptase (Human immunodeficiency virus 1, UniProt Q72547)
Measurement Protocol: Inhibition of wild type HIV1 reverse transcriptase assessed as inhibition of DNA primer extension using [8-3H(N)]-dATP by scintillation proximity assay
pIC50: −log10 of the molar value.
Lab note: anything with pIC50 at or over 5 counts as class 1; the rest go in class 0.

# example entries with known answers
Task: Textbook exercise: given the entry CSc1nc2ncnc(NCC(P(=O)(O)O)P(=O)(O)O)c2cc1-c1ccccc1 , state whether its pIC50 is greater than or equal to 5.
Output: class 1

Task: Entry CSc1nc2ncnc(NCC(P(=O)(O)O)P(=O)(O)O)c2cc1-c1ccc(OC(C)C)cc1 : is its pIC50 no less than 5?
Output: class 1

Task: Dear colleague, could you confirm whether CSc1nc2ncnc(NC(P(=O)(O)O)P(=O)(O)O)c2cc1-c1ccc(OC(C)C)cc1 has pIC50 at or above 5?
Output: class 1

Next:
Task: I'd appreciate it if you could say whether COc1cccc(-c2cnc3ncnc(NCC(P(=O)(O)O)P(=O)(O)O)c3c2)c1 has pIC50 at least equal to 5.
Output: class 0

###

Assayed Target: UniProt Q72547
Measurement Protocol: Inhibition of wild type HIV1 reverse transcriptase assessed as inhibition of DNA primer extension using [8-3H(N)]-dATP by scintillation proximity assay
Assignment: determine reported IC50 for the given compounds.

Known results for compounds:
Task: So what does the record say about IC50 for CSc1ccc2c(NC(P(=O)(O)O)P(=O)(O)O)ncnc2n1 ?
Output: > 50 µM

Task: // returns reported IC50 for input O=P(O)(O)C(CNc1ncnc2ncccc12)P(=O)(O)O
Output: > 50 µM

--- query ---
Task: What value of IC50 has been recorded for this entry: O=P(O)(O)C(Nc1ncnc2ncccc12)P(=O)(O)O
Output: > 50 µM
